Biological target: LHRH (Rattus norvegicus)
Construct: endogenous in cells; host or cells: rat pituitary cells (own knowledge of the cited Haviv 1989 method)
Sequence (P30969 whole entry): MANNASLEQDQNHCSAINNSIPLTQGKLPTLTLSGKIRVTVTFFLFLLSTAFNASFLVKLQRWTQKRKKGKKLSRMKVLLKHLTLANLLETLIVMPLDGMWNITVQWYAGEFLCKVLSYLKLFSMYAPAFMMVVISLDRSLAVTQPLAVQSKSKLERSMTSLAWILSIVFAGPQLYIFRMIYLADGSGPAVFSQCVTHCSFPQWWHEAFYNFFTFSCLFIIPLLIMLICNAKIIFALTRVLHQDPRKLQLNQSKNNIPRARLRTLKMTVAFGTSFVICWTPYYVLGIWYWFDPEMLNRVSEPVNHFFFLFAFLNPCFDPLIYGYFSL
Assay: in vitro test for LHRH antagonist potency (pA2)
Format: cell-based
Details: negative logarithm of the antagonist concentration required to shift the response curve produced by the agonist leuprolide to two-fold higher concentration
Non-standard residues stand in square brackets, D forms with d. Residues, ends and D or L forms follow the SMILES beside them. *: point of attachment. Shikimoyl = O=C(C1=C[C@@H](O)[C@@H](O)[C@H](O)C1)*; Quinoline3carbonyl = O=C(c1cnc2ccccc2c1)*; dPhe(4-Cl) = N[C@H](Cc1ccc(Cl)cc1)C(=O)O; d2Nal = N[C@H](Cc1ccc2ccccc2c1)C(=O)O; NMeY = CN[C@@H](Cc1ccc(O)cc1)C(=O)O; hArg = N=C(N)NCCCC[C@H](N)C(=O)O; d3Pal = N[C@H](Cc1cccnc1)C(=O)O
RECORDED_METRIC: Kb (nM)
Your answer is read as nM, so omit the unit and give the number.

q: I'd like to know its Kb. The molecule in question is CC(C)C[C@H](NC(=O)[C@@H](CCCCNC(=O)C1=C[C@@H](O)[C@@H](O)[C@H](O)C1)NC(=O)[C@H](Cc1ccc(O)cc1)N(C)C(=O)[C@H](CO)NC(=O)[C@@H](Cc1cccnc1)NC(=O)[C@@H](Cc1ccc(Cl)cc1)NC(=O)[C@@H](Cc1ccc2ccccc2c1)NC(=O)CNC(=O)c1cnc2ccccc2c1)C(=O)N[C@@H](CCCCNC(=N)N)C(=O)N1CCC[C@H]1C(=O)N[C@H](C)C(N)=O [Example 25g] (Quinoline3carbonyl-G[d2Nal][dPhe(4-Cl)][d3Pal]S[NMeY][dK](Shikimoyl)L[hArg]P[dA]-NH2)
a: 0.0324

---

Biological target: LHRH (Rattus norvegicus)
Construct: endogenous in cells; host or cells: rat pituitary cells (own knowledge of the cited Haviv 1989 method)
Assay: in vitro test for LHRH antagonist potency (pA2)
Type: cell-based
Conditions: negative logarithm of the antagonist concentration required to shift the response curve produced by the agonist leuprolide to two-fold higher concentration
Non-standard residues stand in square brackets, D forms with d. Residues, ends and D or L forms follow the SMILES beside them. Groups on a side chain read outwards from the residue. *: point of attachment. Shikimoyl = O=C(C1=C[C@@H](O)[C@@H](O)[C@H](O)C1)*; dPhe(4-Cl) = N[C@H](Cc1ccc(Cl)cc1)C(=O)O; d2Nal = N[C@H](Cc1ccc2ccccc2c1)C(=O)O; Lys(iPr) = CC(C)NCCCC[C@H](N)C(=O)O; NMeY = CN[C@@H](Cc1ccc(O)cc1)C(=O)O; d3Pal = N[C@H](Cc1cccnc1)C(=O)O; Nicotinoyl = O=C(c1cccnc1)*; X1 = O=C([C@@H]1CCCO1)*; X7 = O=C([C@H]1CCOC1)*; Sar = CNCC(=O)O
Please provide measured Kb for the entries that follow.
The reply should contain only the number, in nM.

q: API: value(readout=Kb, system=LHRH (Rattus norvegicus)) for record CC(C)C[C@H](NC(=O)[C@@H](CCCCNC(=O)c1cccnc1)NC(=O)[C@H](Cc1ccc(O)cc1)N(C)C(=O)[C@H](CO)NC(=O)[C@@H](Cc1cccnc1)NC(=O)[C@@H](Cc1ccc(Cl)cc1)NC(=O)[C@@H](Cc1ccc2ccccc2c1)NC(=O)[C@H]1CCOC1)C(=O)N[C@@H](CCCCNC(C)C)C(=O)N1CCC[C@H]1C(=O)N[C@H](C)C(N)=O [Example 69] (X7-[d2Nal][dPhe(4-Cl)][d3Pal]S[NMeY][dK](Nicotinoyl)L[Lys(iPr)]P[dA]-NH2)
a: 0.02

q: Notebook entry, LHRH (Rattus norvegicus) assay: Kb of CC(C)C[C@H](NC(=O)[C@@H](CCCCNC(=O)CNC(=O)CNC(=O)c1cccnc1)NC(=O)[C@H](Cc1ccc(O)cc1)N(C)C(=O)[C@H](CO)NC(=O)[C@@H](Cc1cccnc1)NC(=O)[C@@H](Cc1ccc(Cl)cc1)NC(=O)[C@@H](Cc1ccc2ccccc2c1)NC(=O)CNC(=O)C1=C[C@@H](O)[C@@H](O)[C@H](O)C1)C(=O)N[C@@H](CCCNC(=N)N)C(=O)N1CCC[C@H]1C(=O)N[C@H](C)C(N)=O [Example 20] (Shikimoyl-G[d2Nal][dPhe(4-Cl)][d3Pal]S[NMeY][dK]([Gly-Gly-Nicotinoyl])LRP[dA]-NH2) = ?
a: 0.0263

q: // map CC(C)C[C@H](NC(=O)[C@@H](CCCCNC(=O)c1cccnc1)NC(=O)[C@H](Cc1ccc(O)cc1)N(C)C(=O)[C@H](CO)NC(=O)[C@@H](Cc1cccnc1)NC(=O)[C@@H](Cc1ccc(Cl)cc1)NC(=O)[C@@H](Cc1ccc2ccccc2c1)NC(=O)[C@@H]1CCCO1)C(=O)N[C@@H](CCCCNC(C)C)C(=O)N1CCC[C@H]1C(=O)N[C@H](C)C(N)=O [Example 67] (X1-[d2Nal][dPhe(4-Cl)][d3Pal]S[NMeY][dK](Nicotinoyl)L[Lys(iPr)]P[dA]-NH2) to recorded Kb (system: LHRH (Rattus norvegicus))
a: 0.0251

q: For LHRH (Rattus norvegicus), provide Kb of CC(C)C[C@H](NC(=O)[C@@H](CCCCNC(=O)C1=C[C@@H](O)[C@@H](O)[C@H](O)C1)NC(=O)[C@H](Cc1ccc(O)cc1)N(C)C(=O)[C@H](CO)NC(=O)[C@@H](Cc1cccnc1)NC(=O)[C@@H](Cc1ccc(Cl)cc1)NC(=O)[C@@H](Cc1ccc2ccccc2c1)NC(=O)CN(C)C(=O)C1=C[C@@H](O)[C@@H](O)[C@H](O)C1)C(=O)N[C@@H](CCCNC(=N)N)C(=O)N1CCC[C@H]1C(=O)N[C@H](C)C(N)=O [Example 14b] (Shikimoyl-[Sar][d2Nal][dPhe(4-Cl)][d3Pal]S[NMeY][dK](Shikimoyl)LRP[dA]-NH2) please.
a: 0.105

Values from patent US5502035A
